Test system: CD2F1 mice, L1210 leukemia ip, survival T/C
Test: NCI In Vivo Anticancer Drug Screen. Data for tumor model L1210 Leukemia (intraperitoneal) in CD2F1 (CDF1) mice
Settings: endpoint: mean survival time; dose: 200.0 mg/kg/injection; schedule: Q04DX002 (ip); vehicle: saline; higher = longer survival
Experimental: The antitumor activity of compounds was measured in mice bearing transplantable tumors. Survival or tumor size were measured and the results are expressed as the measurement made in the treated group (T) divided by the measurement made in the vehicle treated control group (C). The tumor model used in this assay is L1210 Leukemia (intraperitoneal) in CD2F1 (CDF1) mice
Inconclusive results and toxic doses are left out.
observed.property: T/C

NCC1OC(OC2C(CO)OC(OC3C(O)C(N)CC(N)C3OC3OC(CO)C(O)CC3N)C2O)C(N)C(O)C1OC1OC(CO)C(O)C(O)C1O (stereo not given)    92 % of control
C=CC[N+]12CC=C(CO)C1C(O)CC2 (stereo not given)    104 % of control
Nc1nc(=O)[nH]c(N)c1N    117 % of control
CCOC(=O)NCCB(O)O    88 % of control
CC(=O)NCN(C)N=O    91 % of control

Request: Determine its reported T/C: Cc1nc(CCCCCCCC(=O)O)ccc1O
Result: 97 % of control

Request: Determine its reported T/C: CC(C)C1OCC(C)(C)C(C)O1 (stereo not given)
Result: 93 % of control

Request: Determine its reported T/C: Brc1ccc(N=Cc2ccccc2)cc1
Result: 103 % of control

Request: Determine its reported T/C: COC1OC(C)CC(C)(C)O1 (stereo not given)
Result: 96 % of control

Request: Determine its reported T/C: Nc1ncnc2c1ncn2C1OC(C(=O)OCCO)C(O)C1O (stereo not given)
Result: 90 % of control
